# system-name: Voltage-gated inwardly rectifying potassium channel KCNH2 (Homo sapiens)
# Sequence (Q12809 whole entry): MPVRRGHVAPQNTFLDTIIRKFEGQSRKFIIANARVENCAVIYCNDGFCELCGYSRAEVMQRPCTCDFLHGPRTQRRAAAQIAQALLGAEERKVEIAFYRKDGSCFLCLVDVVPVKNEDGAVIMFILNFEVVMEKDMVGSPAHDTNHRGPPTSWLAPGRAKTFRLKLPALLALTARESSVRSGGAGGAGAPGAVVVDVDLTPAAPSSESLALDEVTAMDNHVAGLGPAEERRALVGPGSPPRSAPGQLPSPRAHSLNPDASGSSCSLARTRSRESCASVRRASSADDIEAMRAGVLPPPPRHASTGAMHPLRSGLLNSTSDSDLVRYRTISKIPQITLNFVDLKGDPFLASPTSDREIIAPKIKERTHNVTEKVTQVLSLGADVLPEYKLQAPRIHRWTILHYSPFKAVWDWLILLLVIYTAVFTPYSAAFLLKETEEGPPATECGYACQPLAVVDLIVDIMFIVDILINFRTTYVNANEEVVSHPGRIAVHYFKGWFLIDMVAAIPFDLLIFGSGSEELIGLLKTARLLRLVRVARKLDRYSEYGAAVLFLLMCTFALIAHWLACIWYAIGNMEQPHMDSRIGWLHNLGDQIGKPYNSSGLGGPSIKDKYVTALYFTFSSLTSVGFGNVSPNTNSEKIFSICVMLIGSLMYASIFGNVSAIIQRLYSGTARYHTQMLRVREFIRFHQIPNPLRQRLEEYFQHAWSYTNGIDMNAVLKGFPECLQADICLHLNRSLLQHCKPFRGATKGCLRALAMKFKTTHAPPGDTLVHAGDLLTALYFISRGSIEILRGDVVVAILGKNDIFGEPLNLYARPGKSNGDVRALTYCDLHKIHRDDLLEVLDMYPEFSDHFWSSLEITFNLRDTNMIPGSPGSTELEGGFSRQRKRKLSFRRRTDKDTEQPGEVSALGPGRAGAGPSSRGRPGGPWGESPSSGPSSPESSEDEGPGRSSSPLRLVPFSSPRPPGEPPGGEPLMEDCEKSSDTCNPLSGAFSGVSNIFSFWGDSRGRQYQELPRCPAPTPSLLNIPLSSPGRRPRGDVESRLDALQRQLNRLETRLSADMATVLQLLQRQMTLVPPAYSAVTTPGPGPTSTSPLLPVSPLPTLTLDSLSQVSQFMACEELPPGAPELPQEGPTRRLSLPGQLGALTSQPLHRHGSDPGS
# test-protocol: Displacement of [3H]Dofetilide from human ERG expressed in HEK cells after 180 mins by scintillation counting method
test-readout: IC50 (µM)
Numbers only, in µM.

Illustrative cases are given below, each with its answer.
- molecule: "CN(C)CCN1C2CCC1CC(OC(c1ccc(F)cc1)c1ccc(F)cc1)C2 (stereo not drawn)"
  unit-label: "µM"
  IC50: 8.23
- molecule: "Fc1ccc(C(OC2CC3CCC(C2)N3CC2CC2)c2ccc(F)cc2)cc1 (stereo not drawn)"
  unit-label: "µM"
  IC50: 3.96

Request: Query: IC50; subject: CN(C)CCN1C2CCC1CC(NC(c1ccc(F)cc1)c1ccc(F)cc1)C2 (stereo not drawn)
Result: 5.48
